Biological target: Pgp (Homo sapiens)
Sequence (P08183 whole entry): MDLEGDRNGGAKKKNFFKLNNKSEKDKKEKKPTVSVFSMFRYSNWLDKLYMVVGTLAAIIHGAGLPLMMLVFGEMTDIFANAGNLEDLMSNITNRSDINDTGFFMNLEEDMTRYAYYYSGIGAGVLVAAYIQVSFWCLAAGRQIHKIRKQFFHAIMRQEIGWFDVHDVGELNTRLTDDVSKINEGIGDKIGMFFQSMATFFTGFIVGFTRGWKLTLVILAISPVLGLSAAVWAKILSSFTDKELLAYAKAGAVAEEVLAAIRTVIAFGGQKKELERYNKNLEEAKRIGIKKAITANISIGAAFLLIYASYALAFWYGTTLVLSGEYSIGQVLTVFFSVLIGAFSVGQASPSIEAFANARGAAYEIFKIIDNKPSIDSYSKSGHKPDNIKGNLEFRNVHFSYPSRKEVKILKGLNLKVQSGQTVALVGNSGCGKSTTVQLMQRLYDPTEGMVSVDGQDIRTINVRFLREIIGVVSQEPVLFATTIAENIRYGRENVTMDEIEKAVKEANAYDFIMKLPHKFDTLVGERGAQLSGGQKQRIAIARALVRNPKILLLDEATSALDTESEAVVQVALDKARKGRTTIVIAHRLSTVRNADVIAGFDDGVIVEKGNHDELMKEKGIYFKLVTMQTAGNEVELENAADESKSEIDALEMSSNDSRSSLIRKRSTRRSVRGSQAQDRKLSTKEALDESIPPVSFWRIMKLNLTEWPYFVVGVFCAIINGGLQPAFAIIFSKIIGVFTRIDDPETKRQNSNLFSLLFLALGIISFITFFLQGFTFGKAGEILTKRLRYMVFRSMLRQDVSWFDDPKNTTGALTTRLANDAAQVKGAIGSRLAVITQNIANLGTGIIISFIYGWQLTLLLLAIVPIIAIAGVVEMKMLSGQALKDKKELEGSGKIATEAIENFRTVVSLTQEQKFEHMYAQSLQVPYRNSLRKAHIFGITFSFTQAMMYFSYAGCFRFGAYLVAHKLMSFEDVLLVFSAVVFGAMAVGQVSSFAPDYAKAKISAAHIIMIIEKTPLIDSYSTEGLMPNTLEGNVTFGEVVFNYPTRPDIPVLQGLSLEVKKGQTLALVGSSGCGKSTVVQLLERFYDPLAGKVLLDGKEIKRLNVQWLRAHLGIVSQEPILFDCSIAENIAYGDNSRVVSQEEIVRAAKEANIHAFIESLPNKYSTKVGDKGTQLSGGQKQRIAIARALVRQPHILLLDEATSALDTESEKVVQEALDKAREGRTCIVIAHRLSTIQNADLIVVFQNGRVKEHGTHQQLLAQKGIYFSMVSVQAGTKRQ
Test: Pgp inhibition assay, calcein AM accumulation in MDCKII-MDR1 cells
metric: pIC50
Give bare numbers, as −log10 of the molar value.

Answer with the recorded pIC50 for the molecule listed here: CC(C)c1nc(CN(C)C(=O)N[C@@H](CCN2CCOCC2)C(=O)N[C@H](CC[C@H](Cc2ccccc2)NC(=O)OCc2cncs2)Cc2ccccc2)cs1 [cobicistat]
4.44

###

Molecular target: BCRP (Homo sapiens)
Sequence (Q9UNQ0 whole entry): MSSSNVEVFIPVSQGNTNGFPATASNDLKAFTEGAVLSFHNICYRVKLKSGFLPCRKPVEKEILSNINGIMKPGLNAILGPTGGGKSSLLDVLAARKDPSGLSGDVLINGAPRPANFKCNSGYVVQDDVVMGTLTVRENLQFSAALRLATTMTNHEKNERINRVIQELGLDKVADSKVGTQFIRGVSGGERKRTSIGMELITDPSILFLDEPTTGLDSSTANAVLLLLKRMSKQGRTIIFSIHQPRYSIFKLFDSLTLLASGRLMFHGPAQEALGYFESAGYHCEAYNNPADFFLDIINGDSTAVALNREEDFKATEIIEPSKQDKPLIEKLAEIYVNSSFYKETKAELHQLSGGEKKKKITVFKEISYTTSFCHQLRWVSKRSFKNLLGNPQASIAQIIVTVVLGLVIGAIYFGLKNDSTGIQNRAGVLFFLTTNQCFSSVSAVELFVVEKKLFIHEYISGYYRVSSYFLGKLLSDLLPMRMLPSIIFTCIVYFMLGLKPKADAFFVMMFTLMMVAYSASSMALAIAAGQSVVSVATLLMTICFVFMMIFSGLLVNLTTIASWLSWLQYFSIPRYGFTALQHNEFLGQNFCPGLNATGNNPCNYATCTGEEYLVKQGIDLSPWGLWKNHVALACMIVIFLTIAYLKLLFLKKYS
Test: BCRP inhibition assay, Hoechst 33342 accumulation in MDCKII-ABCG2 cells
Details: Hoechst 33342, MDCKII-ABCG2 cells
Experimental: Pgp and BCRP inhibition assays in transfected Madin-Darby canine kidney (MDCKII) cells: Inhibition of Pgp-mediated transport was studied using the Pgp substrate calcein AM and MDCKII cells transfected with the human MDR1 (ABCB1) gene (encoding Pgp). […] Wells were analyzed for Hoechst 33342 fluorescence at an excitation of 353 nm and an emission of 460 nm. […]
metric: IC50 (µM)
Give bare numbers, in µM.

Print BCRP (Homo sapiens) IC50 for CC(C)c1nc(CN(C)C(=O)N[C@@H](CCN2CCOCC2)C(=O)N[C@H](CC[C@H](Cc2ccccc2)NC(=O)OCc2cncs2)Cc2ccccc2)cs1 [cobicistat] .
59

###

Tested on: cytochrome P450 enzymes (all isoforms tested)
Test: in vitro
Settings: human
metric: IC50

Answer with the recorded IC50 for the compound listed here: "CC(C)OC(=O)[C@H](C)N[P@](=O)(CO[C@H](C)Cn1cnc2c(N)ncnc21)Oc1ccccc1"
> 7 µM
